Target: TDP-43 (Homo sapiens, UniProt Q13148 1-414)
Sequence (Q13148 whole entry): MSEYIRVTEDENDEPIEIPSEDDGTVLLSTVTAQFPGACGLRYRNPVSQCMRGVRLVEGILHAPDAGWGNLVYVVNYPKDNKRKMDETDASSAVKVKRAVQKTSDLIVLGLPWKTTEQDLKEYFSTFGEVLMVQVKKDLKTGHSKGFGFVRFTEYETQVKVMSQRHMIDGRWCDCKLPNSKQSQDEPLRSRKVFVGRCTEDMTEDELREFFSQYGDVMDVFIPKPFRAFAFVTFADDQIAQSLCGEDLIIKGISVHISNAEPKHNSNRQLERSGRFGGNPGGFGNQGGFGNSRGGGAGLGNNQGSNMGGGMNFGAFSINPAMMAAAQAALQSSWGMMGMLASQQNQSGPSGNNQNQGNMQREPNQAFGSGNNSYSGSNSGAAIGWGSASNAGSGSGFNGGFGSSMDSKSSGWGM
Experiment: RNA Bind-n-Seq with designed 260-mer pool; 25 mM Tris-HCl, 150 mM KCl, 3 mM MgCl2, BSA (printed 500 mg/mL), 20 units/mL SUPERase IN; pH not stated; 500 nM RNA pool, 1 h, 4 C; TDP-43 5, 50, 500 nM; high values mean tight binding
Conditions: protein: recombinant; tags: SBP (GST cleaved off with PreScission; pGEX-GST-SBP)
The full ranking holds about 9,900 sequences; the median of “r (bound/input frequency ratio)” is about 0.7, and the highest 2% start at about 6.5. The entries come from a sample that favours the highest values as a whole.
OBSERVED PROPERTY: binding signal

**Query** Report binding signal, nothing else, for this binder: ENSMUSG00000028439.326|Fam219a (ssRNA) RNA: GGGAGUUCUACAGUCCGACGAUCGCUUCGAUAUCCGCAUGCUAAGAUCCUAAUUAGAUAAGAAAAUGCCAAGGGAGGCAAGCCAGAGAAAGCAUCUGCAGGGGCCACAGGCCCAUGGUGGCCCCAUCUGAGCCCCCUCUCCCACCCCAGUUCGCAUCCCCACCACUCAUCAUCUGGGCCCCAACGCUAGAACUCCCCCCACCGCAUCCCCACUGGGCUCUUUGACUCACCCUUCUAGAACAUGGGUGCCUCCUCUCUUUAGACUGCUGCCUUUGCCUCUGACUUCCUGUGGGAUUGAGAGCCACUCUUGCGGUCGCACUAGUGUGGAAUUCUCGGGUGUCAAGG
**Result** 1.54 R (bound/input frequency ratio)
